test system: M. tuberculosis H37Rv growth inhibition; assay: Mycobacterium tuberculosis H37Rv growth inhibition, putative kinase inhibitor library, confirmatory dose response (AID 2842);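 further: bacteria incubated one week before Alamar blue readout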
RECORDED_METRIC: IC90

>>> result("Fc1cc(F)c2nc(N3CCCC3)sc2c1")
"18.2 µg/mL"
>>> result("Cc1ccc(C)c(-c2nnc(NC(=O)Cc3cccc4ccccc34)o2)c1")
"6.3 µg/mL"
>>> result("O=C(c1ccco1)N(CCCn1ccnc1)c1nc2ccc(Cl)cc2s1")
"0.89 µg/mL"
>>> result("CCOC(=O)c1ccc2nc(Nc3nc4cc5c(cc4s3)OCO5)sc2c1")
"34.8 µg/mL"
>>> result("O=C(Nc1nnc(-c2ccc(F)cc2)o1)c1ccc(Br)s1")
"< 0.2 µg/mL"
>>> result("CCOC(=O)/C=C/CSc1nc2sc3c(c2c(=O)[nH]1)CCCC3")
"12.8 µg/mL"
>>> result("CC(=O)N1CCc2c(sc(NC(=O)C(C)C)c2-c2nc3ccccc3s2)C1")
"13.5 µg/mL"
>>> result("O=C(NCc1nnc(SCC(=O)N2CCC(Cc3ccccc3)CC2)o1)c1ccco1")
"25.1 µg/mL"
>>> result("CN(C)S(=O)(=O)c1ccc(C(=O)Nc2nnc(-c3cc(Cl)ccc3Cl)o2)cc1")
"3.89 µg/mL"
>>> result("Cc1ccc(-c2nnc(NC(=O)C3CC3)o2)c(C)c1")
"1.47 µg/mL"

----------
test system: M. tuberculosis H37Rv growth inhibition; assay: Mycobacterium tuberculosis H37Rv growth inhibition, putative kinase inhibitor library, confirmatory dose response (AID 2842);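 further: bacteria incubated one week before Alamar blue readout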
Collected IC90 values appear next to each entry.
RECORDED_METRIC: IC90

>>> result("COc1ccc(-n2nnc3c(SCC(N)=O)ncnc32)cc1")
"5.67 µg/mL"
>>> result("Fc1cccc2sc(Nc3nc4cc5c(cc4s3)OCO5)nc12")
"11.1 µg/mL"
>>> result("COc1ccc2c(c1)c(=O)c(C(=O)c1ccc(C)cc1)cn2Cc1cccc(C)c1")
"6.97 µg/mL"
>>> result("CCOC(=O)N1CCc2c(sc(NC(C)=O)c2C(=O)OC)C1")
"14 µg/mL"
>>> result("O=C(/C=C/c1ccccc1Cl)Nc1nnc(C2=COCCO2)o1")
"26.7 µg/mL"
>>> result("CCCCC(=O)Nc1nnc(-c2ccc(Br)cc2)o1")
"2.3 µg/mL"
>>> result("Cc1ccc(-n2ncc3c(NNC(=O)c4ccc(Cl)cc4Cl)ncnc32)cc1")
"11.9 µg/mL"
>>> result("COC(=O)c1c(NC(=O)c2ccccc2Cl)sc2c1CC(C)(C)NC2(C)C")
"44.8 µg/mL"
>>> result("N=C1SC(c2ccccc2)C(=O)N1c1nccs1 (stereo not drawn)")
"30.1 µg/mL"
>>> result("COc1ccccc1N1CCN(c2nc(Nc3ccc(F)cc3)c3nccnc3n2)CC1")
"27.6 µg/mL"
>>> result("O=C(Cc1ccc(F)cc1)N(CCCn1ccnc1)c1nc2c(F)cccc2s1")
"3.66 µg/mL"
>>> result("O=C(NC1NC(c2ccccc2)=CS1)c1ccc([N+](=O)[O-])s1 (stereo not drawn)")
"3.42 µg/mL"
>>> result("O=C(Nc1nnc(-c2ccco2)o1)c1ccc2c(c1)OCCO2")
"11.6 µg/mL"
>>> result("OCCN1CCN(c2ncnc3c2cnn3-c2ccc(Cl)c(Cl)c2)CC1")
"14.9 µg/mL"
>>> result("COc1ccc(-c2ccc(C3C(C#N)=C(N)Oc4n[nH]c(C)c43)o2)cc1 (stereo not drawn)")
"4.92 µg/mL"
>>> result("O=C(COc1ccc(Cl)cc1)N1CCN(c2ccc(N3CCCCC3)nn2)CC1")
"14.3 µg/mL"
>>> result("CCOc1cccc2sc(NC(=O)c3ccc(Cl)cc3Cl)nc12")
"11.6 µg/mL"
>>> result("COc1ccc(C)c2sc(N(CCCn3ccnc3)C(=O)c3cccs3)nc12")
"2.4 µg/mL"

----------
# IC90 values compiled below
test system: M. tuberculosis H37Rv growth inhibition; test: Mycobacterium tuberculosis H37Rv growth inhibition, putative kinase inhibitor library, confirmatory dose response (AID 2842);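 further: bacteria incubated one week before Alamar blue readout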
RECORDED_METRIC: IC90

>>> result("CC(C)c1ccc2nc(Nc3nc4ccc(S(C)(=O)=O)cc4s3)sc2c1")
"12 µg/mL"
>>> result("O=C(Nc1cccc(Cl)c1)c1cccc2nc3ccccc3nc12")
"4.6 µg/mL"
>>> result("Cc1ccccc1C(=O)Nc1nnc(-c2ccco2)o1")
"1.69 µg/mL"
>>> result("COc1ccccc1Nc1nc(NCc2ccco2)c2ccccc2n1")
"5.62 µg/mL"
>>> result("Cc1ccc(C)c(-c2nnc(NC(=O)c3cc(Cl)ccc3[N+](=O)[O-])o2)c1")
"0.68 µg/mL"
>>> result("O=C(/C=C/c1ccccc1)Nc1nc2c(s1)COc1ccccc1-2")
"6.8 µg/mL"
>>> result("CC(C)C(=O)Nc1nnc(-c2ccccc2)o1")
"3.31 µg/mL"
>>> result("CCOC(=O)C(C)Sc1ncnc2c1nnn2Cc1ccc(F)cc1 (stereo unspecified)")
"0.51 µg/mL"
>>> result("O=C(Nc1nnc(-c2ccc(Br)cc2)o1)C1=COCCO1")
"24.9 µg/mL"
>>> result("Cc1cn2c3c(=O)[nH]c(=O)n(C)c3nc2n1CCCNc1ccccc1")
"3.69 µg/mL"
>>> result("Cc1ccc(C)c(-c2nnc(NC(=O)c3c(F)cccc3F)o2)c1")
"5.74 µg/mL"
>>> result("COc1ccc(-c2nnc(Nc3nc4c(OC)cccc4s3)o2)cc1")
"23.6 µg/mL"
>>> result("Cc1ccc(C)c(-c2nnc(NC(=O)c3cccc(Cl)c3)o2)c1")
"16.3 µg/mL"
>>> result("O=C(Nc1nnc(-c2ccc(Cl)cc2)o1)c1ccccc1F")
"0.72 µg/mL"
>>> result("O=C(Nc1nnc(C2=COCCO2)o1)c1cc(Cl)sc1Cl")
"34.1 µg/mL"
>>> result("O=C(Nc1nnc(-c2ccc(Br)cc2)o1)C1COc2ccccc2O1 (stereo unspecified)")
"7.27 µg/mL"
>>> result("COc1cccc2sc(Nc3nc4ccccc4s3)nc12")
"3.41 µg/mL"
>>> result("Cc1cc(C)c2nc(N(CCCn3ccnc3)C(=O)c3cccs3)sc2c1")
"1.45 µg/mL"
>>> result("Cc1cccc(N2CCN(C(=O)CCCCCn3c(=O)[nH]c4ccsc4c3=O)CC2C)c1 (stereo unspecified)")
"19.5 µg/mL"
>>> result("COc1ccc(Nc2nc(Nc3cccc(OC)c3)nc3nccnc23)cc1")
"9.86 µg/mL"
>>> result("CN(c1ccccc1)S(=O)(=O)c1ccc(C(=O)Nc2nnc(-c3ccco3)o2)cc1")
"8.33 µg/mL"
>>> result("COc1ccc(C)c2sc(NNC(=O)c3cccc(F)c3)nc12")
"32.6 µg/mL"
>>> result("O=C(Nc1nnc(C2=COCCO2)o1)c1ccc(Oc2ccccc2)cc1")
"16.8 µg/mL"
>>> result("O=C(Nc1nc(-c2ccc3c(c2)CCCC3)cs1)c1ccc2c(c1)OCCO2")
"14.5 µg/mL"
>>> result("O=C(Nc1nnc(-c2cc(Cl)ccc2Cl)o1)c1ccc(S(=O)(=O)N2CCCCC2)cc1")
"11.7 µg/mL"
>>> result("CSc1cccc2sc(Nc3cccc(C)c3)nc12")
"12.2 µg/mL"
>>> result("CSc1nnc(C)c(=O)n1COC(=O)/C=C/c1ccc2c(c1)OCO2")
"11.2 µg/mL"
>>> result("Cc1cc(C)cc(OCCCn2c(CO)nc3ccccc32)c1")
"14 µg/mL"
>>> result("COc1ccc(C(=O)Nc2nnc(-c3cc(C)ccc3C)o2)c(OC)c1")
"13.4 µg/mL"
>>> result("O=C(Nc1cccc(C(F)(F)F)c1)NC1CC(=O)N(c2cccc(F)c2)C1 (stereo unspecified)")
"8.52 µg/mL"
>>> result("O=C(Nc1nnc(-c2ccncc2)o1)c1cccc(C(F)(F)F)c1")
"28.1 µg/mL"
>>> result("O=C(Nc1ncc(Cc2cccc(C(F)(F)F)c2)s1)c1cccs1")
"2.92 µg/mL"
>>> result("C=CCOC(=O)COc1ccc2cc(-c3ccc(Cl)cc3)c(=O)oc2c1")
"2.53 µg/mL"
>>> result("Cc1c(Cl)ccc2sc(N(CCCn3ccnc3)C(=O)/C=C/c3cccs3)nc12")
"0.24 µg/mL"
>>> result("Cc1ccc(-c2nnc(NC(=O)c3ccccc3)o2)c(C)c1")
"8.78 µg/mL"
>>> result("O=C(Nc1nnc(C2=COCCO2)o1)c1ccc(F)cc1")
"2.21 µg/mL"

----------
tested on: M. tuberculosis H37Rv growth inhibition; assay: Mycobacterium tuberculosis H37Rv growth inhibition, putative kinase inhibitor library, confirmatory dose response (AID 2842);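 further: bacteria incubated one week before Alamar blue readout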
RECORDED_METRIC: IC90

>>> result("O=C(Nc1nnc(C2=COCCO2)o1)c1cc(Cl)cc(Cl)c1")
"53.7 µg/mL"
>>> result("CC(C)(C)/C(O)=C(/C#N)c1nc2ccccc2[nH]1")
"16.6 µg/mL"
>>> result("Cc1ccc2sc(N(CCCn3ccnc3)C(=O)COc3ccccc3)nc2c1C")
"5.39 µg/mL"
>>> result("COc1ccc(C(=O)NNc2nc3cc(C)cc(C)c3s2)cc1")
"38.8 µg/mL"
>>> result("O=C(Nc1nnc(-c2ccc3c(c2)CCCC3)o1)c1cc(Cl)sc1Cl")
"3.53 µg/mL"
>>> result("CCOC(=O)N1CCN(c2ncnc3c2cnn3-c2ccc(C)c(Cl)c2)CC1")
"12.2 µg/mL"
>>> result("COc1ccc2nc(N(CCCn3ccnc3)C(=O)c3cccc(OC)c3OC)sc2c1")
"11.3 µg/mL"
>>> result("COc1ccccc1-c1nnc(NC(=O)Cc2ccc(SC)cc2)o1")
"52.6 µg/mL"
>>> result("CS(=O)(=O)Nc1cccc(C2=NN(c3nc(-c4ccccc4)c4cc(Cl)ccc4n3)C(c3ccccc3F)C2)c1 (stereo not given)")
"6.67 µg/mL"
>>> result("O=C(Nc1nnc(-c2cccs2)o1)c1cccc(C(F)(F)F)c1")
"3.48 µg/mL"
